These entries and their values trace back to patent US4863942A.

Molecular target: phospholipase C obtained from human thrombocytes
Experiment: In vitro test for determining the inhibition of phospholipase C obtained from human thrombocytes
Type: biochemical
Conditions: mepacrine under the test conditions described; read-out: IC50
Experimental: In vitro test for determining the inhibition of phospholipase C obtained from human thrombocytes Human thrombocytes are obtained from "buffy coats" by fractional centrifugation and then deep-frozen. Phospholipase C is released by ultrasound treatment of the cell suspension and, after ultracentrifugation (150,000 g, 1 hour) is in soluble form in the supernatant. […]
Reported endpoint: IC50 (µM)

Molecule: CCN(CC)CCCC(C)Nc1c2ccc(Cl)cc2nc2ccc(OC)cc12 (stereo not shown) [mepacrine, reference compound]
Test system: phospholipase C obtained from human thrombocytes
Measured value: 20
